Data origin: patent US8158585B2

Molecular target: tPA-mediated plasminogen activation (Homo sapiens, UniProt P00750)
Construct: purchased Boehringer-Ingelheim (Germany)
Sequence (P00750 36-562): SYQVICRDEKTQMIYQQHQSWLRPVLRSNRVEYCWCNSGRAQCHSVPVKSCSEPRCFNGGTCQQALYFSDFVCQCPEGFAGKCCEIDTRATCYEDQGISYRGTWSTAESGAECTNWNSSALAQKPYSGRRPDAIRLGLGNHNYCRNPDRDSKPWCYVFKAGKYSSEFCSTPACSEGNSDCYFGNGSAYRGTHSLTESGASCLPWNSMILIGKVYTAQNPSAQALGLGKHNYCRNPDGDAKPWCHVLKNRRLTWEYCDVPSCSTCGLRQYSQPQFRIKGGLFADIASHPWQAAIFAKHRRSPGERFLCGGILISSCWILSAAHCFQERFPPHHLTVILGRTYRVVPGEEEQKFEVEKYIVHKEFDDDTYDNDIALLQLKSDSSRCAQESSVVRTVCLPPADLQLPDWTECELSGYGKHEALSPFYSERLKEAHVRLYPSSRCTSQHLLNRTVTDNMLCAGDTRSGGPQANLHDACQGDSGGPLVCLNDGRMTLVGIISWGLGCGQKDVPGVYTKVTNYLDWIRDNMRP
Experiment: Plasminogen activation assay
Format: biochemical
Conditions: plasminogen 200 μg ml−1, tPA 200 pM, 5 μM co-factor; S-2251
readoutLabel: stimulation of tPA-mediated plasmin formation

residueCodes: KRLEVDIDIKIRS (Peptide FP13 from Homo sapiens) [compound 85]
dataValue: stimulate
--
residueCodes: KCNTATCATQRLANFLVHSSNNFGAILSSTNVGSNTY (Peptide fl-hIAPP from Homo sapiens)
dataValue: stimulate
--
residueCodes: SNNLGPVLPP (Peptide Delta mIAPP from Homo sapiens) [Δ-mIAPP]
dataValue: not
--
residueCodes: KRLEVDIDIKIR (Peptide FP12 from Homo sapiens) [compound 86]
dataValue: stimulate
--
residueCodes: SNNFGAILSS (Peptide Delta hIAPP from Homo sapiens) [Δ-hIAPP]
dataValue: stimulate
